Where these numbers come from: the OPERA property sets (Mansouri et al. 2018)

Quick reference for logP among some compounds
Number, no unit, nothing else.

Worked examples, 5 compounds total:
compound="O=C(c1ccc(-c2ccccc2)cc1)c1ccc2n1CCC2C(=O)O (configuration not stated)" reading=4.27
compound=Clc1ccc(-c2ccccc2)cc1Cl reading=5.29
compound=C=C(C)C(=O)OCc1ccccc1 reading=2.53
compound=CCCCCCCCC=CCCCCCCCC(=O)O reading=7.64
compound="C=C1C(=O)OC2C=C(C)C(OC(C)=O)CC(O)C(C)=CC(OC(=O)C(C)=CC)C12 (configuration not stated)" reading=1.16

Can you look up the measured logP of `CC(C)Nc1nc(Cl)nc(NC2CC2)n1` for me? 3.06

Try the compound `Cc1nc(Cl)c(C#N)cc1-c1ccccc1` 3.24

Try the compound CC1OC(OC2C(O)CC(OC3C(O)CC(OC4CCC5(C)C(CCC6C5CC(O)C5(C)C(C7COC(=O)C7)CCC65O)C4)OC3C)OC2C)CC(O)C1O (configuration not stated) 1.36

Try the compound `O=[N+]([O-])c1nccn1CCN1CCOCC1` -0.1

Try the compound CCCC(=O)OCC(=O)C1(O)CCC2C3CCC4=CC(=O)CCC4(C)C3C(O)CC21C (configuration not stated) 2.91

Try the compound `Cc1ccc(O)c(CO)c1` 0.97

Try the compound `CCCCCCCCCCCC(=O)C(C)(C)C(=O)N(C)c1c(OC)cc(OC)cc1OC` 6.67

---

Quick reference for logP among some compounds
Number, no unit, nothing else.

Worked examples, 5 compounds total:
compound=Nc1nc(N)c2nc(-c3ccc(O)cc3)c(N)nc2n1 reading=0.92
compound=Cc1ccc(C)c(O)c1C reading=2.67
compound="O=C(COc1ccc(OCCNCC(O)COc2ccccc2)cc1)N1CCCCC1 (stereo not given)" reading=2.6
compound=Cc1nc2n(c(=O)c1C)CCCC2 reading=0.6
compound=CCCCCCC(C)=NNC(=N)N reading=2.08

Can you look up the measured logP of CCN1CC(C(O)C(CC2CCCCC2)NC(=O)C(Cc2cscn2)NC(=O)C(CC(=O)N2CCOCC2)c2ccccc2)OC1=O (stereo not given) for me? 2.83

---

Quick reference for logP among some compounds
Number, no unit, nothing else.

Worked examples, 3 compounds total:
compound=Nc1cccc(I)c1 reading=2.86
compound=O=C1CCC(c2ccccc2)CC1 reading=2.3
compound=CN(C)[C@@H]1C(O)=C(C(N)=O)C(=O)[C@@]2(O)C(O)=C3C(=O)c4c(O)ccc(Cl)c4[C@@](C)(O)[C@H]3C[C@@H]12 reading=-0.62

Can you look up the measured logP of CC(=O)OC(C(=O)ON=C(C)C12CC3CC(CC(C3)C1)C2)c1ccccc1 (stereo not drawn) for me? 5.89

Try the compound Cc1cnc2n(c1=O)C(C)CCC2 (stereo not drawn) 0.82

Try the compound `O=[N+]([O-])c1cc(F)cc(F)c1` 2.03

Try the compound `CCN(CC)CCNC(=O)c1cc(Br)c(N)cc1OC` 2.83

Try the compound CC(C)NCC(O)COc1cccc(CC(N)=O)c1 (stereo not drawn) 0.22

Try the compound CC(=O)OCCCN1C(=O)C(OC(C)=O)N=C(c2ccccc2)c2cc(Cl)ccc21 (stereo not drawn) 3.08

Try the compound `CCCCCCCCC(=O)O` 3.42

Try the compound Cc1ccc(C(O)(Cn2ccnc2)c2ccc(Br)cc2)cc1 (stereo not drawn) 3.55

Try the compound CCCC(O)C(=O)O (stereo not drawn) 0.45

Try the compound `C=CC(=O)OCCOCCOCCOC(=O)C=C` 0.96

Try the compound CC(N)CC1CCCCCCC1 (stereo not drawn) 3.7

Try the compound `O=c1[nH]c2ccccc2cc1-c1ccccc1` 2.99

Try the compound `Cc1cc(Br)cc(C(=O)NC2CC2)c1O` 3.8

Try the compound `O=C(CN1CCCCC1)Nc1ccc(Cl)c(Cl)c1` 3.65

Try the compound `C#C[C@]1(O)CC[C@H]2[C@@H]3CCc4cc(O)ccc4[C@H]3[C@@H](OC)C[C@@]21C` 3.01

Try the compound `CN(C)N=Nc1ccc(C(=O)O)cc1` 2.33

Try the compound `O=C(O)c1cccnc1` 0.36

Try the compound OC1CCCc2ccccc21 (stereo not drawn) 1.98

Try the compound `CCCCc1ccc(N2C(N)=NC(N)=NC2(C)C)cc1` 2.66

Try the compound CC(C(=O)NCC(O)CO)n1ccnc1[N+](=O)[O-] (stereo not drawn) -1.64

---

Quick reference for logP among some compounds
Number, no unit, nothing else.

compound=CNCCc1ccccc1 reading=1.91
compound="CC1(C)C(C=C2CCSC2=O)C1C(=O)OCc1ccccc1 (stereo not given)" reading=4.02
compound="CCCCCCC(C)(C)c1cc(O)c2c(c1)OC(C)(C)C1CCC(CO)=CC21 (stereo not given)" reading=7.83

Can you look up the measured logP of CC(C(=O)NCCO)n1ccnc1[N+](=O)[O-] (stereo not given) for me? -1.16

Try the compound `OCC1c2ccccc2-c2ccccc21` 2.89

---

Everything with logP lower than 3 is No; everything else, including exactly 3, is Yes.

molecule=NCCc1cnc[nH]1 group_label=No
molecule=c1ccc(-c2ccc(-c3ccccc3)cc2)cc1 group_label=Yes
molecule="C=C1C(=O)OC2C=C(C)C3(O)C=CC(C)(CC(OC(=O)C(=CC)COC(C)=O)C12)O3 (configuration not stated)" group_label=No

// inclusive: logP at least 3? input: OC(CCN1CCCCC1)(c1ccccc1)C1CCCCC1 (configuration not stated) Yes

Try the molecule OC(Cn1ccnc1)(c1ccc(-c2ccccn2)cc1)c1ccc(F)cc1F (configuration not stated) Yes

Try the molecule `CN1CC=C(c2cccs2)CC1` No

Try the molecule CC(=O)OC1CC2C(CCC3CC(OC4CC(O)C(OC5CC(O)C(OC6CC(O)C(O)C(C)O6)C(C)O5)C(C)O4)CCC32C)C2(O)CCC(C3=CC(=O)OC3)C12C (configuration not stated) No

Try the molecule `COc1c(OC)c(OC(C)=O)c2cc(NC(C)=O)ccc2c1OC(C)=O` No

Try the molecule COCCNC(=O)COc1ccc(OCCNCC(O)COc2ccccc2)cc1 (configuration not stated) No

Try the molecule COC(=O)C1=C(C)NC(C)=C(C(=O)OCCN(C)Cc2ccccc2)C1c1cccc([N+](=O)[O-])c1 (configuration not stated) Yes

Try the molecule CNC1CC2CC1c1ccccc12 (configuration not stated) No

Try the molecule `CCCCCCCCc1ccc(C2C(=O)c3ccccc3C2=O)cc1` Yes

---

observable: logP
Number, no unit, nothing else.

compound=O=C1C=CC(=O)C(c2ccccc2)=C1 observable=logP reading=1.95

Can you look up the measured logP of `CCCC(=O)c1ccccc1` for me? 2.77

Try the compound COc1ncnc2c1ncn2C1OC(CO)C(OC(=O)Cc2ccccc2)C1OC(=O)Cc1ccccc1 (centres undefined) 3.48

Try the compound `Cc1ccc2c(c1)C(c1ccccc1)=NCC(=O)N2` 2.62

---

Categories are defined by ranges of logP, namely lo = under 2, mid = from 2 up to 3, hi = 3 and over

Previously resolved entries follow.
compound="CC(=O)OCCN1C(=O)C(OC(C)=O)N=C(c2ccccc2)c2cc(Cl)ccc21 (stereo not given)" group_label=mid
compound="CCOP(=O)(NC)ON=C(C#N)c1ccc(Cl)cc1 (stereo not given)" group_label=mid
compound=CC(C)(C)c1ccc(C2C(=O)c3ccccc3C2=O)cc1 group_label=hi
compound="CCN1CC(C(O)C(CC2CCCCC2)NC(=O)C(Cc2cnc[nH]2)NC(=O)C(Cc2ccc(OC)cc2)NC(=O)N(C)CC(O)CO)OC1=O (stereo not given)" group_label=lo
compound=Oc1ccc2c(c1)CCCC2 group_label=mid

Tag the class for `CCN(CC)CCC(=O)Nc1c(C)cccc1C` mid

Try the compound CC1CCCc2nccc(=O)n21 (stereo not given) lo

Try the compound `Cc1c2ccccc2c(C)c2ccccc12` hi

Try the compound CC(O)c1ccc2ccccc2c1 (stereo not given) mid

Try the compound `O=C(NC1CCCCC1)NS(=O)(=O)c1ccc(Cl)cc1` hi
